Please respond with reported Kd for every item in the list.
EXPERIMENTAL_TARGET: CtBP1(WT, FL) (human, UniProt Q13363 1-440)
EXPERIMENT_DESCRIPTION: ITC; VP-ITC, 25 °C, 50 mM HEPES (pH 7.2), 150 mM NaCl; CtBP in the cell (10 µM for RAI2 M1 or M2, 20 µM for the WT RAI2 constructs), RAI2 in the syringe (100 µM); mean of three independent measurements ± SD
MEASUREMENT_SETUP: both partners purified
Answer with the value and then the unit.

As a guide, the following entries are already answered.
Query string: # input binder: RAI2(M1, 303-362) (domain or fragment, source: E. coli BL21 DE3 LOBSTR, purified (HisTrap, TEV cleavage, Superdex 75); not shown: His6, N-terminal, cleaved) SRHTVIKMGSENEALDAAMKSVPWLKAGEVSPPIFQEDAALDLSVAAHRKSEPPPETLYD ; wanted: its Kd
Result string: 5500 nM

Query string: # input binder: SRHTVIKMGSENEALDLSMKSVPWLKAGALDLSVAAHRKSEPPPETLYD (domain or fragment, UniProt Q9Y5P3 303-362, looked up, source: E. coli BL21 DE3 LOBSTR, purified (HisTrap, TEV cleavage, Superdex 75); not shown: His6, N-terminal, cleaved) [RAI2(Δ11, 303-362)] ; wanted: its Kd
Result string: 800 nM

Query string: # input binder: RAI2(WT, 303-362) (domain or fragment, this construct came from the same vector (pETGB1a, TEV site) and may carry the same residues; source: E. coli BL21 DE3 LOBSTR, purified (HisTrap, TEV cleavage, Superdex 75); not shown: His6, N-terminal, cleaved) SRHTVIKMGSENEALDLSMKSVPWLKAGEVSPPIFQEDAALDLSVAAHRKSEPPPETLYD ; wanted: its Kd
Result string: 1100 nM

// each listed binder needs a value for Kd
1. RAI2(WT, 303-465) (domain or fragment, this construct came from the same vector and may carry the same residues; source: E. coli BL21 DE3 LOBSTR, purified (HisTrap, TEV cleavage, Superdex 75); not shown: His6, N-terminal, cleaved) SRHTVIKMGSENEALDLSMKSVPWLKAGEVSPPIFQEDAALDLSVAAHRKSEPPPETLYDSGASVDSSGHTVMEKLPSGMEISFAPATSHEAPAMMDSHISSSDAATEMLSQPNHPSGEVKAENNIEMVGESQAAKVIVSVEDAVPTIFCGKIKGLSGVSTKN
2. RAI2(M2, 303-362) (domain or fragment, source: E. coli BL21 DE3 LOBSTR, purified (HisTrap, TEV cleavage, Superdex 75); not shown: His6, N-terminal, cleaved) SRHTVIKMGSENEALDLSMKSVPWLKAGEVSPPIFQEDAALDAAVAAHRKSEPPPETLYD

Result string:
1. 1500 nM
2. 3900 nM

FYI, the data here is from paper PMC11187106.
